The values you see were collected from patent US9273057B2.

target: CK2A1 (CK2α/β) (Homo sapiens, UniProt P68400); experiment: CK2 kinase assay, CK2A1 (CK2α/β); assay type: biochemical; settings: Table A; read-out: CK2A1 (CK2α/β) (IC50)
Sequence (P68400 whole entry, species assumed): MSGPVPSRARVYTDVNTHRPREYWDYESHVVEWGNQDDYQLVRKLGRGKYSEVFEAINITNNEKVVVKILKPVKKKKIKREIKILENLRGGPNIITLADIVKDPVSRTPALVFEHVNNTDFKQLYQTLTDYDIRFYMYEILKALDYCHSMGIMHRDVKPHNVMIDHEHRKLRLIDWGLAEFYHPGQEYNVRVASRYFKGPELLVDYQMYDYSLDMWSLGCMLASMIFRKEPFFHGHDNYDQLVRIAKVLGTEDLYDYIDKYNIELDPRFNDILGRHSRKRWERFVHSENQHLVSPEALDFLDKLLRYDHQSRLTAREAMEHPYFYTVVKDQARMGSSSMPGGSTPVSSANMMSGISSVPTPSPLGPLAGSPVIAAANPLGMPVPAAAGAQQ
Sequence (P67870 whole entry partner, species assumed): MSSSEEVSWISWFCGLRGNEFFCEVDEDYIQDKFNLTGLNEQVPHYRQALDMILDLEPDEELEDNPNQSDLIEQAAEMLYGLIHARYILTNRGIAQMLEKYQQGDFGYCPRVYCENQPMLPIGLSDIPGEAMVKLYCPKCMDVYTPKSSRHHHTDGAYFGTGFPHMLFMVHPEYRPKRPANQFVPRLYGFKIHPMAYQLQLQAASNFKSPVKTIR
Counter-ions that a name gives are not always drawn.
Kindly state pIC50 for each of the entries shown.
The value called pIC50 is obtained by taking minus log10 of the concentration in mol/L.

Asked: What does the record list as pIC50 for CCNc1nc(Nc2cc(C#N)cc(C3CCN(CC(C)(C)O)CC3)c2Cl)nn2c(C#N)cnc12 ?
Given back: 9.06

Asked: # get_value(readout='pIC50', item= N#Cc1cnc2c(NC3CC3)nc(Nc3cc(C(F)F)cc(N4CCN(C5CCOC5)CC4)c3Cl)nn12 (racemic) )
Given back: 8.46

Asked: Item under review: CCNc1nc(Nc2cc(C#N)cc(N3CC[C@@H](NC(=O)OC)[C@H](OC(=O)C[C@H]4CC[C@H](N)CC4)C3)c2Cl)nn2c(C#N)cnc12 [Example 820, hydrochloride] . Reported pIC50?
Given back: 8.22
